Sourced from patent US12516044B2

Test Target: PD-1/PD-L1 protein/protein interaction (Homo sapiens, UniProt Q9NZQ7)
Construct: Recombinant human PD-L1 protein (19-238) with a His-tag at the C-terminus; PD1-H5257 (PD-1-Fc)
Sequence (Q9NZQ7 19-238): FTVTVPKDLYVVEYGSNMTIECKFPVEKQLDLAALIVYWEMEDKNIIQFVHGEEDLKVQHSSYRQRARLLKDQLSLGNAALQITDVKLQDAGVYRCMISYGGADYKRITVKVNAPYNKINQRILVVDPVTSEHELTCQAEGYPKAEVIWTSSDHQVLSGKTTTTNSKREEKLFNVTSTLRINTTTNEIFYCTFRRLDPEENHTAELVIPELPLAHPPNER
Assay Remarks: PD-1/PD-L1 Homogeneous Time-Resolved Fluorescence (HTRF) Binding Assay
Condition Context: recombinant human PD-L1 (19-238) His-tag and human PD-1 (25-167) Fc tag; 25° C., PBS pH 7.4
pIC50: −log10 of the molar value.
Reported pIC50 is given for each of the following molecules.

[
  {
    "Structure String": "Cn1ncc2c(-c3cccc(NC(=O)c4ccc(CNCCO)cn4)c3C#N)cccc21",
    "pIC50": "≥ 8.00"
  },
  {
    "Structure String": "Cc1c(NC(=O)c2cc(OCc3cccnc3)ncn2)cccc1-c1ccccc1",
    "pIC50": "6.00 to 7.00"
  },
  {
    "Structure String": "N#Cc1c(NC(=O)c2ccc(CNCCO)cn2)cccc1-c1ccc2c(c1)OCCO2",
    "pIC50": "≥ 8.00"
  },
  {
    "Structure String": "Cc1c(NC(=O)c2ncc(CN3CCCC[C@H]3C(=O)O)cc2Cl)cccc1-c1ccccc1",
    "pIC50": "6.00 to 7.00"
  },
  {
    "Structure String": "Cc1c(NC(=O)c2cnccn2)cccc1-c1ccccc1",
    "pIC50": "7.00 to 8.00"
  },
  {
    "Structure String": "Cc1c(NC(=O)c2cc(OCc3cccnc3)c(CNCCO)cn2)cccc1-c1ccccc1",
    "pIC50": "7.00 to 8.00"
  }
]

Consider the additional molecule presented here.
Give the reported value of pIC50 for this record: Cc1c(NC(=O)c2ncc(CNCCO)cn2)cccc1-c1ccccc1
7.00 to 8.00
